Biological target: human ACC1 (Homo sapiens (Human))
parameter.measured: IC50 (nM)

>>> print(df.to_string())
                                smiles_repr  unit_info  readout_value
0  CC(=O)N[C@@H](C)CCc1ccc(Oc2ccc(OC(C)C)nc2)cc1         nM            190

---

Target: rACC2 (Rattus norvegicus, UniProt O70151)
Sequence (O70151 1-2456): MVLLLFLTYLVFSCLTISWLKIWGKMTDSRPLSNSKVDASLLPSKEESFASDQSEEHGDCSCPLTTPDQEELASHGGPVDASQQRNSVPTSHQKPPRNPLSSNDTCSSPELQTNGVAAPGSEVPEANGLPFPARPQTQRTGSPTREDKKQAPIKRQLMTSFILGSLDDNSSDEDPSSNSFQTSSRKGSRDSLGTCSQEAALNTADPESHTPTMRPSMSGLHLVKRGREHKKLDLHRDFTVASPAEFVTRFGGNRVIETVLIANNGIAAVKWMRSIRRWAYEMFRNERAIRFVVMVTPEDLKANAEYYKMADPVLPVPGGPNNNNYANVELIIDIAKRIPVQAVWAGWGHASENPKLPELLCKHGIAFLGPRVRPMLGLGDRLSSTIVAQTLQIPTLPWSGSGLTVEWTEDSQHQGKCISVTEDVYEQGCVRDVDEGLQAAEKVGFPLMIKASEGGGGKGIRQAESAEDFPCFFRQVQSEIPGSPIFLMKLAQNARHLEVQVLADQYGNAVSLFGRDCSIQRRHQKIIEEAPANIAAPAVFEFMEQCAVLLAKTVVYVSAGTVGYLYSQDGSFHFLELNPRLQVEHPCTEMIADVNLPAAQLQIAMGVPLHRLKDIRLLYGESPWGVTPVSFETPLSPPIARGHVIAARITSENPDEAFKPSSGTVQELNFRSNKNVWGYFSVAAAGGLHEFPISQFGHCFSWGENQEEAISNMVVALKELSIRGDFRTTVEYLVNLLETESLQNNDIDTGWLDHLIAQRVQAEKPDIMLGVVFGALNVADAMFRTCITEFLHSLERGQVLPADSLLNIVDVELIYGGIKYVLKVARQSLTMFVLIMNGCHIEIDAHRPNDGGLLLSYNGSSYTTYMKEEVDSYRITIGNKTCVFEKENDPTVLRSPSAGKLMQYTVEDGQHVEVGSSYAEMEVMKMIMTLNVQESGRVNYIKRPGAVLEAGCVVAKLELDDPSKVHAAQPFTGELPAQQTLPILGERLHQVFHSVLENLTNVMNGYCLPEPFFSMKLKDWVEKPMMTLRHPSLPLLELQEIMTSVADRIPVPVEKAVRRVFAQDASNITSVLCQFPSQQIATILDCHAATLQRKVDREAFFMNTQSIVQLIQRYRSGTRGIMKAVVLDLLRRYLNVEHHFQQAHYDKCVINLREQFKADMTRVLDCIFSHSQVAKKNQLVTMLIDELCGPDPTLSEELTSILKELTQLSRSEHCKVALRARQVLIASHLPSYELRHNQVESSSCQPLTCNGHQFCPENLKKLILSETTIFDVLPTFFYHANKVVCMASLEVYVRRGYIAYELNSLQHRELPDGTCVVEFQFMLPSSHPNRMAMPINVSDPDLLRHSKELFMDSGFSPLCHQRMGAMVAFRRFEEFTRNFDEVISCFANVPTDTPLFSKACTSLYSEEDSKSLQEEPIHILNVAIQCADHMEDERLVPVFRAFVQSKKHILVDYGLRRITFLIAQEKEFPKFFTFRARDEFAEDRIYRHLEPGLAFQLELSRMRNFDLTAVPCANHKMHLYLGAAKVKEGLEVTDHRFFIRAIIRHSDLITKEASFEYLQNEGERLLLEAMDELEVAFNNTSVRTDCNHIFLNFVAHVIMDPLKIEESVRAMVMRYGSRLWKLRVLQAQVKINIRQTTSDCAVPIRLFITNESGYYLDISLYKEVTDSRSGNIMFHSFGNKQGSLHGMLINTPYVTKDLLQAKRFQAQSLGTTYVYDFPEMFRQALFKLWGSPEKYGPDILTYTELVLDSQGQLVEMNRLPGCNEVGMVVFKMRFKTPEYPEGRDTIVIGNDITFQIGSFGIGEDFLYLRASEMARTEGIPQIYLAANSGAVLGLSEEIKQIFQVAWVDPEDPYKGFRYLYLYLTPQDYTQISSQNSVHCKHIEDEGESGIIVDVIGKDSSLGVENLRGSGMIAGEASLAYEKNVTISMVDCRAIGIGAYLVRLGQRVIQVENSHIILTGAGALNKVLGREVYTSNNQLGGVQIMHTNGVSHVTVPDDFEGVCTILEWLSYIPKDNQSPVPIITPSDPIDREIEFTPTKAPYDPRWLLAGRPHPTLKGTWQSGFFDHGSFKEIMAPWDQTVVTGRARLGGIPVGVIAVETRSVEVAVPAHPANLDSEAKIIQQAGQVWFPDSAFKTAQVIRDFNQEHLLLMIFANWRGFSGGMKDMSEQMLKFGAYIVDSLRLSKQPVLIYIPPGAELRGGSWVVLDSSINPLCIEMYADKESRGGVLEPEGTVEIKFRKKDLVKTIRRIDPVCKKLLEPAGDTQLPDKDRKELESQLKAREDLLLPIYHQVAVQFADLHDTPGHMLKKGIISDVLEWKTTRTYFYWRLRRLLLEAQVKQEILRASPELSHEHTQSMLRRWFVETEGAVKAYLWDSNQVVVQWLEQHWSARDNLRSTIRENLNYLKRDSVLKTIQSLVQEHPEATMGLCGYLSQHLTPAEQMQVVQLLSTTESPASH
Assay: Enzymatic assay of ACC inhibitors, rat ACC2
Assay type: biochemical
Conditions: rat ACC2; read-out: IC50 rACC2
parameter.measured: IC50

>>> df
                                smiles_repr  readout_value
0  CC(=O)N[C@@H](C)CCc1ccc(Oc2ccc(OC(C)C)nc2)cc1         0.4 µM

Reference source: patent US8470841B2
